Recorded values, source patent US11085056B2.

- Tested on: C2C12 Cells
- Protocol summary: Transfection of C2C12 cells with DOTMA/DOPE/peptide and eGFP plasmid, fluorescent plate reader
- Assay type: cell-based, mouse
- Condition label: DOTMA/DOPE 1:1 plus peptide with RRRRRRRRRRRR (SEQ ID NO: 109) at n terminus; EF1Alpha eGFP plasmid; 0.02 mL complex; 42 hours
Recorded measurements of RF (Relative Fluorescence) of Transfection of C2C12 Cells, one per entry
Keep it simple and answer with nothing but the number.

# count of solved cases: 2
INSERT INTO results (substance, test_value) VALUES
  ('323 (HQQDLGTAGSCLRKFSTMFLF; Peptidic transfection agent) [compound 323]', 7698),
  ('503 (TAGSCLRKFSTMRRRRRRRRRRRR; Peptidic transfection agent) [compound 503]', 3973);

For this substance ( 367 (TDIPPCPHGWISLWK; Peptidic transfection agent) [compound 367] ), measured RF (Relative Fluorescence) of Transfection of C2C12 Cells is 16207

Entry 352 (RIQNLLKITNLRIKFVK; Peptidic transfection agent) [compound 352] , RF (Relative Fluorescence) of Transfection of C2C12 Cells reported as 3324

* * *

- Test system: C2C12 Cells
- Protocol summary: Transfection of C2C12 cells with DOTMA/DOPE/peptide and eGFP plasmid, fluorescent plate reader
- Type: cell-based, mouse
- Condition label: DOTMA/DOPE 1:1 plus peptide with RRRRRRRRRRRR (SEQ ID NO: 109) at n terminus; EF1Alpha eGFP plasmid; 0.02 mL complex; 42 hours
Outcome: Fulfilled for RF (Relative Fluorescence) of Transfection of C2C12 Cells of at least 2000; Not fulfilled for anything lower.

INSERT INTO results (substance, answer_label) VALUES
  ('353 (KKQRFRHRNRKGYRSQ; Peptidic transfection agent) [compound 353]', 'Fulfilled');

input: Is it the case that 347 (DLGTAGSCLRKFSTM; Peptidic transfection agent) [compound 347] has RF (Relative Fluorescence) of Transfection of C2C12 Cells reaching or exceeding 2000?
output: Fulfilled

input: For this substance, is measured RF (Relative Fluorescence) of Transfection of C2C12 Cells 2000 or higher? 216 (YRVRVTPKEKTGPMKE; Peptidic transfection agent) [compound 216]
output: Not fulfilled

input: Textbook exercise: given the entry 379 (TAGSCLRKF; Peptidic transfection agent) [compound 379] , state whether its RF (Relative Fluorescence) of Transfection of C2C12 Cells is greater than or equal to 2000.
output: Fulfilled

input: State whether the measured RF (Relative Fluorescence) of Transfection of C2C12 Cells reaches 2000, counting equality as reaching it, for 342 (TAGSCLRKFSTM; Peptidic transfection agent) [compound 342]
output: Fulfilled

* * *

- System: C2C12 Cells
- Protocol summary: Transfection of C2C12 cells with DOTMA/DOPE/peptide and eGFP plasmid, fluorescent plate reader
- Assay type: cell-based, mouse
- Condition label: DOTMA/DOPE 1:1 plus peptide with RRRRRRRRRRRR (SEQ ID NO: 109) at n terminus; EF1Alpha eGFP plasmid; 0.02 mL complex; 42 hours
Readout name: RF (Relative Fluorescence) of Transfection of C2C12 Cells
Write no unit; give the number alone.

INSERT INTO measurements (substance, test_value) VALUES
  ('502 (RNIAEIIKDI; Peptidic transfection agent) [compound 502]', 2589),
  ('369 (TAIPSCPEGTVPLYS; Peptidic transfection agent) [compound 369]', 3322),
  ('354 (SINNTAVMQRLT; Peptidic transfection agent) [compound 354]', 1912),
  ('365 (ISRCQVCMKKRH; Peptidic transfection agent) [compound 365]', 5390),
  ('220 (ATETTITIS; Peptidic transfection agent) [compound 220]', 1470);

The substance identified as 219 (RKRLQVQLSIRT; Peptidic transfection agent) [compound 219] registered its RF (Relative Fluorescence) of Transfection of C2C12 Cells at 1346

Summary for this substance, 328 (NWRHISYITRFG; Peptidic transfection agent) [compound 328] : RF (Relative Fluorescence) of Transfection of C2C12 Cells is 5507

Form field RF (Relative Fluorescence) of Transfection of C2C12 Cells, entry 381 (TAGSCL; Peptidic transfection agent) [compound 381] : 8834

450 (TAGSCLRKFSCL; Peptidic transfection agent) [compound 450] has a reported RF (Relative Fluorescence) of Transfection of C2C12 Cells of 3795
